- System: A498
- Assay type: cell-based
- COND: Homo sapiens, one dose 10^-5 M, 48 h
QUANTITY KIND: % growth at 10 µM (%)
Give the number; % is assumed, so skip it.

Solved entries:
[[record]]
molecule = "CN(C)c1ccc(-c2nc(S)nc(N)c2C#N)cc1 [Compound 1a]"
result_value = 131

[[record]]
molecule = "CN(C)c1ccc(-c2cc([N+](=O)[O-])ccc2C=NNC(=N)c2cnc(S)nc2N)cc1 [Compound 4c]"
result_value = 124

[[record]]
molecule = "N#Cc1c(N)nc(S)nc1-c1ccc(Cl)cc1 [Compound 1b]"
result_value = 77.4

[[record]]
molecule = "N=C(NN=Cc1ccc(Cl)cc1Cl)c1c(N)nc(S)nc1-c1ccc(Cl)cc1 [Compound 4l]"
result_value = 6.77

[[record]]
molecule = "N=C(NN=Cc1ccccc1)c1c(N)nc(S)nc1-c1ccc(Cl)cc1 [Compound 4g]"
result_value = 105

[[record]]
molecule = "CN(C)c1ccc(-c2nc(S)nc(N)c2C(=N)NN=Cc2ccccc2)cc1 [Compound 4a]"
result_value = 107


Could you now consider this next molecule?
Lab note: measured % growth at 10 µM of N=C(NN=Cc1ccc(Cl)cc1)c1c(N)nc(S)nc1-c1ccc(Cl)cc1Cl [Compound 4n] was 122

* * *

- TGT: PI3Kα (Homo sapiens, UniProt P42336)
- Sequence (P42336 whole entry, species assumed): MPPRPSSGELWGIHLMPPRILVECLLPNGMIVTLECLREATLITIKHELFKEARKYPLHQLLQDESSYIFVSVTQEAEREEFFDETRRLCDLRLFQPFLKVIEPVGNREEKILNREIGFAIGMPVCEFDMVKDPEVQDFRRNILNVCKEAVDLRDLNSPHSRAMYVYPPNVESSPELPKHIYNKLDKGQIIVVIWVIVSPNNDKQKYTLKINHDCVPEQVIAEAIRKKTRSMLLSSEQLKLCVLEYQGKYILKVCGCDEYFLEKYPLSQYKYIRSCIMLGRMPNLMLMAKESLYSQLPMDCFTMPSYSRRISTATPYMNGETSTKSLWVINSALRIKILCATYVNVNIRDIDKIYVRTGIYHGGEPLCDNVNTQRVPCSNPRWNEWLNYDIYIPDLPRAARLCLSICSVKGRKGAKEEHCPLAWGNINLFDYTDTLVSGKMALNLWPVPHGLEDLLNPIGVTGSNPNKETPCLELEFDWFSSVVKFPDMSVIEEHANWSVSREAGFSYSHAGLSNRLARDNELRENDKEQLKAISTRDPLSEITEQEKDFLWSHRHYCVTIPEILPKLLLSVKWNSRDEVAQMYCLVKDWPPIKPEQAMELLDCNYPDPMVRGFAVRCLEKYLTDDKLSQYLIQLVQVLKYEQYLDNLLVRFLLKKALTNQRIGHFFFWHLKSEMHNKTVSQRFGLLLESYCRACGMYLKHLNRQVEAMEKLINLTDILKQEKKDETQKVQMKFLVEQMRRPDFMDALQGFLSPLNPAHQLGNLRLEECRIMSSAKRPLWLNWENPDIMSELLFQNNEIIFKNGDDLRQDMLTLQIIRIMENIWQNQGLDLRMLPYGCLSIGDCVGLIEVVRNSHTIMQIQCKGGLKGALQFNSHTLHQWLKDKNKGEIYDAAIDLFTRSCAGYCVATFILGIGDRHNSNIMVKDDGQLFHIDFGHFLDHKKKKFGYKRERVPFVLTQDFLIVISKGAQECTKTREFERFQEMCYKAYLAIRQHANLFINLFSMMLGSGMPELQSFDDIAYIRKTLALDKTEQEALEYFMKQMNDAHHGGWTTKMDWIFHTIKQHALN
- Sequence (P27986 whole entry partner, species assumed): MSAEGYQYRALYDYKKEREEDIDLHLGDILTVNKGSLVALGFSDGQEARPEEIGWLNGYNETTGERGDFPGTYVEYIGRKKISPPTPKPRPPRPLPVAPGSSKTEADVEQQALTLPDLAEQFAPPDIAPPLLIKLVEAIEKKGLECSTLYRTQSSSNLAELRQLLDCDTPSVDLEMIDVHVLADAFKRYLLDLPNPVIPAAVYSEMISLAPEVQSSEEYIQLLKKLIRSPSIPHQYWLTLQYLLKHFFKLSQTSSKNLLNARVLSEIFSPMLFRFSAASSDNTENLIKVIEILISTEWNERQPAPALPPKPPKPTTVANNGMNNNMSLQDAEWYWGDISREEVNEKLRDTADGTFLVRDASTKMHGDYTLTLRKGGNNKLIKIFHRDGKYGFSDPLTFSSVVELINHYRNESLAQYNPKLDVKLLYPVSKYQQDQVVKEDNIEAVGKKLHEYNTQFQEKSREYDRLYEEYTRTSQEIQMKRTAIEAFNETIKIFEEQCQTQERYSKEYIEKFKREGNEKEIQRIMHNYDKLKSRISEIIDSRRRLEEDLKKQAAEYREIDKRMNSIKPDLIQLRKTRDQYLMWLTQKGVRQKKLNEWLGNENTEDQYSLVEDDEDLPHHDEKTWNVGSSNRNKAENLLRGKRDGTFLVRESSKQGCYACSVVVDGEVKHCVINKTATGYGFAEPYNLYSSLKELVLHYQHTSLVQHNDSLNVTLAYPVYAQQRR
QUANTITY KIND: IC50 (nM)
Value expressed in nM; do not type the unit.

Item N#Cc1c(N)nc(S)nc1-c1ccc(Cl)cc1Cl ; assay system PI3Kα (Homo sapiens, UniProt P42336); IC50 reported as 880

* * *

- Tested on: MDA-MB-435
- Format: cell-based
- COND: Homo sapiens, one dose 10^-5 M, 48 h, read-out: % growth
QUANTITY KIND: activity at 10 µM (%)
Field format: number, assumed %, no unit text.

A selection of reference data follows.
[[record]]
mol = "N=C(NN=Cc1ccc(Cl)cc1Cl)c1c(N)nc(S)nc1-c1ccc(Cl)cc1"
value_units = "%"
result_value = 89

[[record]]
mol = "Nc1nc(S)nc(-c2ccc(Cl)cc2)c1-c1ncn[nH]1"
value_units = "%"
result_value = 103

[[record]]
mol = "N#Cc1c(N)nc(S)nc1-c1ccc(Cl)cc1Cl"
value_units = "%"
result_value = 25.3


The value of activity at 10 µM recorded for COc1ccc(C=NNC(=N)c2c(N)nc(S)nc2-c2ccc(Cl)cc2)cc1 when tested on MDA-MB-435 reads 104

Given the compound N=C(NN=Cc1ccc([N+](=O)[O-])cc1)c1c(N)nc(S)nc1-c1ccc(Cl)cc1 and test system MDA-MB-435, the measured activity at 10 µM is 101

activity at 10 µM for MDA-MB-435 with input N=C(NN=Cc1ccc(Cl)cc1Cl)c1c(N)nc(S)nc1-c1ccc(Cl)cc1Cl equals 113

The recorded activity at 10 µM with MDA-MB-435 for COc1ccc(/C=N\NC(=N)c2c(N)nc(S)nc2-c2ccc(N(C)C)cc2)cc1 was 96.7

Here N=C(NN=Cc1ccc(Cl)cc1)c1c(N)nc(S)nc1-c1ccc(Cl)cc1 was tested on MDA-MB-435, and its activity at 10 µM came to 98.8

* * *

- Test system: OVCAR-5
- Type: cell-based
- COND: Homo sapiens, one dose 10^-5 M, 48 h
QUANTITY KIND: percent cell growth at 10 µM
Just so you know, I need the unit written after the number.

// solved cases for percent cell growth at 10 µM follow
[[record]]
mol = "N#Cc1c(N)nc(S)nc1-c1ccc(Cl)cc1Cl"
tgt = "OVCAR-5"
quantity_kind = "percent cell growth at 10 µM"
result_value = "93.5%"

[[record]]
mol = "N=C(NN=Cc1ccc(Cl)cc1Cl)c1c(N)nc(S)nc1-c1ccc(Cl)cc1Cl"
tgt = "OVCAR-5"
quantity_kind = "percent cell growth at 10 µM"
result_value = "117%"


Recorded percent cell growth at 10 µM (molecule N=C(NN=Cc1ccc([N+](=O)[O-])cc1)c1c(N)nc(S)nc1-c1ccc(Cl)cc1Cl ): 111%

Value of percent cell growth at 10 µM reported for the molecule N=C(NN=Cc1ccc(Cl)cc1)c1c(N)nc(S)nc1-c1ccc(Cl)cc1 is 95.4%

// percent cell growth at 10 µM lookup, molecule = N=C(NN=Cc1ccc(Br)cc1)c1c(N)nc(S)nc1-c1ccc(Cl)cc1 , result: 97%

Entry N=C(NN=Cc1ccc(Cl)cc1)c1c(N)nc(S)nc1-c1ccc(Cl)cc1Cl — recorded percent cell growth at 10 µM = 105%

Short answer for N=C(NN=Cc1ccc(Br)cc1)c1c(N)nc(S)nc1-c1ccc(Cl)cc1Cl : percent cell growth at 10 µM was 119%

The recorded percent cell growth at 10 µM for CN(C)c1ccc(-c2nc(S)nc(N)c2C(=N)NN=Cc2ccc(Cl)cc2)cc1 is 109%

* * *

- Tested on: A549/ATCC
- Assay type: cell-based
- COND: Homo sapiens, one dose 10^-5 M, 48 h
QUANTITY KIND: % growth at 10 µM

Use the examples below as a reference point.
[[record]]
mol = "N=C(NN=Cc1ccccc1)c1c(N)nc(S)nc1-c1ccc(Cl)cc1"
result_value = "31.6%"

[[record]]
mol = "N=C(NN=Cc1ccc(Br)cc1)c1c(N)nc(S)nc1-c1ccc(Cl)cc1"
result_value = "55.3%"

[[record]]
mol = "CN(C)c1ccc(-c2nc(S)nc(N)c2C(=N)NN=Cc2ccc(Br)cc2)cc1"
result_value = "108%"

[[record]]
mol = "COc1ccc(C=NNC(=N)c2c(N)nc(S)nc2-c2ccc(Cl)cc2Cl)cc1"
result_value = "102%"

[[record]]
mol = "N=C(NN=Cc1ccc(Cl)cc1)c1c(N)nc(S)nc1-c1ccc(Cl)cc1Cl"
result_value = "95.8%"

[[record]]
mol = "CN(C)c1ccc(-c2nc(S)nc(N)c2C(=N)NN=Cc2ccc(Cl)cc2Cl)cc1"
result_value = "107%"

[[record]]
mol = "CN(C)c1ccc(-c2nc(S)nc(N)c2-c2ncn[nH]2)cc1"
result_value = "108%"

[[record]]
mol = "N=C(NN=Cc1ccc(Cl)cc1Cl)c1c(N)nc(S)nc1-c1ccc(Cl)cc1"
result_value = "90.7%"

[[record]]
mol = "N=C(NN=Cc1ccc([N+](=O)[O-])cc1)c1c(N)nc(S)nc1-c1ccc(Cl)cc1Cl"
result_value = "101%"

[[record]]
mol = "COc1ccc(/C=N\\NC(=N)c2c(N)nc(S)nc2-c2ccc(N(C)C)cc2)cc1"
result_value = "103%"


Recorded % growth at 10 µM (compound N=C(NN=Cc1ccc(Cl)cc1)c1c(N)nc(S)nc1-c1ccc(Cl)cc1 ): 93.1%

% growth at 10 µM recorded for this compound, CN(C)c1ccc(-c2nc(S)nc(N)c2C(=N)NN=Cc2ccc(Cl)cc2)cc1 , is 98.4%

So, COc1ccc(C=NNC(=N)c2c(N)nc(S)nc2-c2ccc(Cl)cc2)cc1 ? Its % growth at 10 µM was 107%

Per the records, this compound ( CN(C)c1ccc(-c2nc(S)nc(N)c2C(=N)NN=Cc2ccccc2)cc1 ) has % growth at 10 µM equal to 103%

The compound listed as N=C(NN=Cc1ccc(Cl)cc1Cl)c1c(N)nc(S)nc1-c1ccc(Cl)cc1Cl has a reported % growth at 10 µM of 102%

What the record says about Nc1nc(S)nc(-c2ccc(Cl)cc2)c1-c1ncn[nH]1 : % growth at 10 µM is 110%

Value of measured % growth at 10 µM for the entry N=C(NN=Cc1ccc([N+](=O)[O-])cc1)c1c(N)nc(S)nc1-c1ccc(Cl)cc1 : 103%

* * *

The entries below are paired with their reported activity at 10 µM.
- Tested on: MDA-MB-435
- Format: cell-based
- COND: Homo sapiens, one dose 10^-5 M, 48 h, read-out: % growth
Answer format: numeric, % implied, no suffix.

Example compounds with recorded activity at 10 µM:
[[record]]
mol = "CN(C)c1ccc(-c2nc(S)nc(N)c2C(=N)NN=Cc2ccc(Cl)cc2Cl)cc1"
result_value = 91.8

[[record]]
mol = "N=C(NN=Cc1ccc(Br)cc1)c1c(N)nc(S)nc1-c1ccc(Cl)cc1"
result_value = 87.8

[[record]]
mol = "CN(C)c1ccc(-c2nc(S)nc(N)c2C(=N)NN=Cc2ccc(Br)cc2)cc1"
result_value = 101


Entry N=C(NN=Cc1ccc([N+](=O)[O-])cc1)c1c(N)nc(S)nc1-c1ccc(Cl)cc1Cl ; activity at 10 µM = 108

* * *

- Tested on: NCI-H226
- Format: cell-based
- COND: Homo sapiens, one dose 10^-5 M, 48 h
Entries and their % growth at 10 µM values follow.
Please state the figure in %; there is no need to write the unit.

Sample records with % growth at 10 µM:
[[record]]
compound = "COc1ccc(/C=N\\NC(=N)c2c(N)nc(S)nc2-c2ccc(N(C)C)cc2)cc1 [Compound 4d]"
result_value = 103

[[record]]
compound = "N=C(NN=Cc1ccc([N+](=O)[O-])cc1)c1c(N)nc(S)nc1-c1ccc(Cl)cc1 [Compound 4i]"
result_value = 150

[[record]]
compound = "N=C(NN=Cc1ccc(Cl)cc1Cl)c1c(N)nc(S)nc1-c1ccc(Cl)cc1Cl [Compound 4r]"
result_value = 106

[[record]]
compound = "N#Cc1c(N)nc(S)nc1-c1ccc(Cl)cc1Cl [Compound 1c]"
result_value = 64.4

[[record]]
compound = "CN(C)c1ccc(-c2nc(S)nc(N)c2C#N)cc1 [Compound 1a]"
result_value = 96

[[record]]
compound = "N=C(NN=Cc1ccc(Cl)cc1Cl)c1c(N)nc(S)nc1-c1ccc(Cl)cc1 [Compound 4l]"
result_value = 62.4


% growth at 10 µM for Nc1nc(S)nc(-c2ccc(Cl)cc2Cl)c1-c1ncn[nH]1 [Compound 5c] is 110

CN(C)c1ccc(-c2cc([N+](=O)[O-])ccc2C=NNC(=N)c2cnc(S)nc2N)cc1 [Compound 4c] has a reported % growth at 10 µM of 112

CN(C)c1ccc(-c2nc(S)nc(N)c2C(=N)NN=Cc2ccccc2)cc1 [Compound 4a] yielded % growth at 10 µM of 98.6
